- Test system: biphenotypic B myelomonocytic leukemia MV4-11 cells
- test: In vitro antiproliferative assay (MTT), MV4-11
- Format: cell-based, human
- assayContext: 72 h exposure, mean ± SD
Please go through the items and note down their IC50 MV4-11.
Field format: number, assumed µg/mL, no unit text.

Ask | Identify the measured IC50 MV4-11 of CC(=O)Nc1ccc(-c2csc(N/N=C(\C)c3ccc(Nc4nc(N)nc(N)n4)cc3)n2)cc1 [Compound 4g] for biphenotypic B myelomonocytic leukemia MV4-11 cells.
Reply | 2.76

Ask | Identify the measured IC50 MV4-11 of C/C(=N\Nc1nc(-c2ccc(NS(C)(=O)=O)cc2)cs1)c1ccc(Nc2nc(N)nc(N)n2)cc1 [Compound 4j] for biphenotypic B myelomonocytic leukemia MV4-11 cells.
Reply | 1.73

Ask | Identify the measured IC50 MV4-11 of C/C(=N\Nc1nc(-c2cc3ccccc3oc2=O)cs1)c1ccc(Nc2nc(N)nc(N)n2)cc1 [Compound 4f] for biphenotypic B myelomonocytic leukemia MV4-11 cells.
Reply | 3.08

Ask | Identify the measured IC50 MV4-11 of N.N.[Cl][Pt][Cl] [cis-platin, reference compound] for biphenotypic B myelomonocytic leukemia MV4-11 cells.
Reply | 0.22

---

- Test system: VERO cells
- test: Cell viability assay (MTT), VERO
- Format: cell-based, Cercopithecus aethiops
- assayContext: 15.6 µg/ml, 24 h
Please go through the items and note down their Viability VERO.
Field format: number, assumed %, no unit text.

Ask | GET /values?readout=Viability VERO&item= C/C(=N\Nc1nc(-c2cc3ccccc3oc2=O)cs1)c1ccc(Nc2nc(N)nc(N)n2)cc1 [Compound 4f]
Reply | 108.19

Ask | GET /values?readout=Viability VERO&item= C/C(=N\Nc1nc(-c2ccc(NS(C)(=O)=O)cc2)cs1)c1ccc(Nc2nc(N)nc(N)n2)cc1 [Compound 4j]
Reply | 90.98

Ask | GET /values?readout=Viability VERO&item= C/C(=N\Nc1nc(-c2ccc3[nH]c(=O)oc3c2)cs1)c1ccc(Nc2nc(N)nc(N)n2)cc1 [Compound 4l]
Reply | 96.08

Ask | GET /values?readout=Viability VERO&item= CC(=O)Nc1ccc(-c2csc(N/N=C(\C)c3ccc(Nc4nc(N)nc(N)n4)cc3)n2)cc1 [Compound 4g]
Reply | 98.43

---

- test: Cell viability assay (MTT), L929
- Type: cell-based, Mus musculus
- assayContext: mouse, L929 fibroblast cells, 1.8 µg/ml
Please go through the items and note down their viability at 24 h, 1.8 µg/ml.
Field format: number, assumed %, no unit text.

Ask | GET /values?readout=viability at 24 h, 1.8 µg/ml&item= C/C(=N\Nc1nc(-c2ccc(F)cc2)cs1)c1ccc(Nc2nc(N)nc(N)n2)cc1 [Compound 4a]
Reply | 101

Ask | GET /values?readout=viability at 24 h, 1.8 µg/ml&item= C/C(=N\NC(N)=S)c1ccc(Nc2nc(N)nc(N)n2)cc1 [Compound 3]
Reply | 116

Ask | GET /values?readout=viability at 24 h, 1.8 µg/ml&item= C/C(=N\Nc1nc(-c2ccc(Cl)c(Cl)c2)cs1)c1ccc(Nc2nc(N)nc(N)n2)cc1 [Compound 4i]
Reply | 97.9

Ask | GET /values?readout=viability at 24 h, 1.8 µg/ml&item= C/C(=N\Nc1nc(-c2ccccc2)cs1)c1ccc(Nc2nc(N)nc(N)n2)cc1 [Compound 4k]
Reply | 107

Ask | GET /values?readout=viability at 24 h, 1.8 µg/ml&item= C/C(=N\Nc1nc(-c2ccc(Br)cc2)cs1)c1ccc(Nc2nc(N)nc(N)n2)cc1 [Compound 4d]
Reply | 97.8

Ask | GET /values?readout=viability at 24 h, 1.8 µg/ml&item= C/C(=N\Nc1nc(-c2ccc(C)cc2)cs1)c1ccc(Nc2nc(N)nc(N)n2)cc1 [Compound 4c]
Reply | 95.5

Ask | GET /values?readout=viability at 24 h, 1.8 µg/ml&item= C/C(=N\Nc1nc(-c2ccc(Cl)cc2)cs1)c1ccc(Nc2nc(N)nc(N)n2)cc1 [Compound 4b]
Reply | 95.3

Ask | GET /values?readout=viability at 24 h, 1.8 µg/ml&item= C/C(=N\Nc1nc(-c2ccc(I)cc2)cs1)c1ccc(Nc2nc(N)nc(N)n2)cc1 [Compound 4e]
Reply | 97.6

Ask | GET /values?readout=viability at 24 h, 1.8 µg/ml&item= C/C(=N\Nc1nc(-c2ccc([N+](=O)[O-])cc2)cs1)c1ccc(Nc2nc(N)nc(N)n2)cc1 [Compound 4h]
Reply | 98.5

---

- Tested on: biphenotypic B myelomonocytic leukemia MV4-11 cells
- test: In vitro antiproliferative assay (MTT), MV4-11
- Assay type: cell-based, human
- assayContext: Homo sapiens, MV4-11, 72 h exposure, mean ± SD
Please go through the items and note down their IC50.
Field format: number, assumed µg/mL, no unit text.

Ask | Identify the measured IC50 of "C/C(=N\Nc1nc(-c2ccc(F)cc2)cs1)c1ccc(Nc2nc(N)nc(N)n2)cc1" for biphenotypic B myelomonocytic leukemia MV4-11 cells.
Reply | 3.21

Ask | Identify the measured IC50 of "C/C(=N\Nc1nc(-c2ccc(Br)cc2)cs1)c1ccc(Nc2nc(N)nc(N)n2)cc1" for biphenotypic B myelomonocytic leukemia MV4-11 cells.
Reply | 2.14

Ask | Identify the measured IC50 of "C/C(=N\Nc1nc(-c2ccc(C)cc2)cs1)c1ccc(Nc2nc(N)nc(N)n2)cc1" for biphenotypic B myelomonocytic leukemia MV4-11 cells.
Reply | 3.09

Ask | Identify the measured IC50 of "C/C(=N\Nc1nc(-c2ccc(Cl)c(Cl)c2)cs1)c1ccc(Nc2nc(N)nc(N)n2)cc1" for biphenotypic B myelomonocytic leukemia MV4-11 cells.
Reply | 1.37

Ask | Identify the measured IC50 of "C/C(=N\Nc1nc(-c2ccc(I)cc2)cs1)c1ccc(Nc2nc(N)nc(N)n2)cc1" for biphenotypic B myelomonocytic leukemia MV4-11 cells.
Reply | 1.13

Ask | Identify the measured IC50 of "C/C(=N\Nc1nc(-c2ccccc2)cs1)c1ccc(Nc2nc(N)nc(N)n2)cc1" for biphenotypic B myelomonocytic leukemia MV4-11 cells.
Reply | 2.3

Ask | Identify the measured IC50 of "C/C(=N\Nc1nc(-c2ccc(Cl)cc2)cs1)c1ccc(Nc2nc(N)nc(N)n2)cc1" for biphenotypic B myelomonocytic leukemia MV4-11 cells.
Reply | 1.89

Ask | Identify the measured IC50 of "C/C(=N\Nc1nc(-c2ccc([N+](=O)[O-])cc2)cs1)c1ccc(Nc2nc(N)nc(N)n2)cc1" for biphenotypic B myelomonocytic leukemia MV4-11 cells.
Reply | 3.01

---

Please go through the items and note down their Viability L929.
- Tested on: mouse L929 fibroblast
- test: Cell viability assay (MTT), L929
- Assay type: cell-based
- assayContext: 15.6 µg/ml, 24 h
Field format: number, assumed %, no unit text.

Ask | GET /values?readout=Viability L929&item= "CC(=O)Nc1ccc(-c2csc(N/N=C(\C)c3ccc(Nc4nc(N)nc(N)n4)cc3)n2)cc1"
Reply | 94.31

Ask | GET /values?readout=Viability L929&item= "C/C(=N\Nc1nc(-c2cc3ccccc3oc2=O)cs1)c1ccc(Nc2nc(N)nc(N)n2)cc1"
Reply | 100.89

Ask | GET /values?readout=Viability L929&item= "C/C(=N\Nc1nc(-c2ccc3[nH]c(=O)oc3c2)cs1)c1ccc(Nc2nc(N)nc(N)n2)cc1"
Reply | 105.02

Ask | GET /values?readout=Viability L929&item= "C/C(=N\Nc1nc(-c2ccc(NS(C)(=O)=O)cc2)cs1)c1ccc(Nc2nc(N)nc(N)n2)cc1"
Reply | 100.71

---

- test: Cell viability assay (MTT), L929
- Type: cell-based, Mus musculus
- assayContext: mouse, L929 fibroblast cells, 15.6 µg/ml
- Procedure: […] The effects of tested compounds on the viability of mouse fibroblasts L929 and […] VERO cells were evaluated using the MTT assay. […] Optical density (OD) was read on the ELISA reader (Multiskan EX, Labsystems; http://www.mtxlsi.com/multiskan_EX.htm) at 550 nm. The results were expressed as percentage viability compared with the treated 2.5% DMSO controls. […]
endpointLabel: viability at 24 h, 15.6 µg/ml (%)
Field format: number, assumed %, no unit text.

Ask | GET /values?readout=viability at 24 h, 15.6 µg/ml&item= "C/C(=N\Nc1nc(-c2ccc(Cl)c(Cl)c2)cs1)c1ccc(Nc2nc(N)nc(N)n2)cc1"
Reply | 98.1

Ask | GET /values?readout=viability at 24 h, 15.6 µg/ml&item= "C/C(=N\Nc1nc(-c2ccc(Br)cc2)cs1)c1ccc(Nc2nc(N)nc(N)n2)cc1"
Reply | 108

Ask | GET /values?readout=viability at 24 h, 15.6 µg/ml&item= "C/C(=N\NC(N)=S)c1ccc(Nc2nc(N)nc(N)n2)cc1"
Reply | 105

Ask | GET /values?readout=viability at 24 h, 15.6 µg/ml&item= "C/C(=N\Nc1nc(-c2ccc([N+](=O)[O-])cc2)cs1)c1ccc(Nc2nc(N)nc(N)n2)cc1"
Reply | 105

Ask | GET /values?readout=viability at 24 h, 15.6 µg/ml&item= "C/C(=N\Nc1nc(-c2ccccc2)cs1)c1ccc(Nc2nc(N)nc(N)n2)cc1"
Reply | 106
